- Tested on: HT29 RAMS11 overexpressing cells
- assay-protocol: High-throughput viability assay (resazurin), 119 FDA-approved anticancer drugs, RAMS11 overexpressing cells (Clone1, Clone2)
- cond: OE1 (RAMS11 overexpression clone 1), 0.1 uM drug, 72 h, vs empty vector control
Decide using Viability Fold Change alone. Strictly below 1: T. Equal to or above 1: F.

Solved entries (count: 3):
CNC(=O)c1cc(Oc2ccc(NC(=O)Nc3ccc(Cl)c(C(F)(F)F)c3)c(F)c2)ccn1 [Regorafenib] : T
CS(=O)(=O)CCNCc1ccc(-c2ccc3ncnc(Nc4ccc(OCc5cccc(F)c5)c(Cl)c4)c3c2)o1 [Lapatinib] : F
CN(C)c1nc(N(C)C)nc(N(C)C)n1 [Altretamine] : T

q: Answer whether the compound CC1=C(/C=C/C(C)=C/C=C/C(C)=C/C(=O)O)C(C)(C)CCC1 [Tretinoin] has Viability Fold Change strictly less than 1
a: F

q: Answer whether the compound O=c1[nH]c(=O)n([C@H]2C[C@H](O)[C@@H](CO)O2)cc1F [floxuridine, reference compound] has Viability Fold Change strictly less than 1
a: F
